Tested on: K562
Assay: NCI tumour cell line growth inhibition, 48 h
Active and inactive are the calls of the source. Cut-off read from the data, not from the text of the source: active = GI50 up to about 1.1 µM and inactive = higher.
Your answer must be one of the following: active, inactive

| compound | assigned label |
| --- | --- |
| N#Cc1nc2cc(Cl)ccc2nc1N1CCN(c2ccc([N+](=O)[O-])cc2)CC1 | inactive |
| Cc1cc2c(cc1C)C(=O)c1ncccc1C2=O | inactive |
| Cc1nc2c(n1CC(C)C)C(=O)c1ccccc1C2=O | inactive |
| COc1ccc(C(=O)/C=C/c2ccc(OCC(=O)N3CCN(c4ccccc4)CC3)cc2)cc1OC | inactive |
| Nc1ccc(-c2nc3ccc(F)cc3s2)cc1Cl | inactive |

// return assay outcome for O=[N+]([O-])c1ccc(/C=C(/c2ccc([N+](=O)[O-])o2)S(=O)(=O)c2ccccc2)cc1
inactive

// return assay outcome for C=CC(=O)NC(O)(C(=O)OCC)C(F)(F)F (stereo unspecified)
inactive

// return assay outcome for CC1CC[C@@H](C(C)C)[C@H](Oc2nnc(C3OC(CO)C(O)C3O)o2)C1 (stereo partly specified)
inactive

// return assay outcome for COc1ccc(Cc2nccc3cc(OC)c(OC)cc23)cc1
inactive

// return assay outcome for Cc1cc2c(ccc[n+]2[O-])[n+]([O-])c1
inactive

// return assay outcome for CC(C)(C)C(=O)OCC1C(=O)OCC1C(=O)N1Cc2cc3ccccc3nc2C1 (stereo unspecified)
active

src = ChEMBL document CHEMBL1201862
